These entries and their values trace back to patent US20250018014A1.

Target: T1, C-terminal human Regnase-1 (amino acids 301 to 599) with N-terminal FLAG tag and C-terminal BirA recognition … (human, UniProt Q5D1E8 301-599)
T1 sequence: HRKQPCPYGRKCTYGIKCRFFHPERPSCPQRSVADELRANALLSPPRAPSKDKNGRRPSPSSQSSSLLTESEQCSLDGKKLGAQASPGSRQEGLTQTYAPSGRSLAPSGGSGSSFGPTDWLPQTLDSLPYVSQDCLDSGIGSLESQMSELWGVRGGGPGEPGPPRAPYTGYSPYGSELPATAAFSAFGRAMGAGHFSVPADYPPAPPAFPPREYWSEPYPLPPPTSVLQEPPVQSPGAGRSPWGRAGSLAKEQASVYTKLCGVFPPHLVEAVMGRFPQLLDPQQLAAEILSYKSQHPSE
Experiment: cell-based or functional assay
ASSAY READOUT: 50% inhibition concentration, Regnase-1 phosphorylation by TBK1 (AlphaScreen) (µM)
One number for each entry, in µM.

Q: Any idea what 50% inhibition concentration, Regnase-1 phosphorylation by TBK1 (AlphaScreen) was measured for XDIWFDYWDYD (HELM PEPTIDE1{[meA].D.I.W.F.D.Y.W.D.Y.D.[C1CCN([*:1])C1]}$PEPTIDE1,PEPTIDE1,1:R1-11:R3$$$V2.0; SMILES CC[C@H](C)[C@@H]1NC(=O)[C@H](CC(=O)O)NC(=O)[C@H](C)N(C)C(=O)C[C@@H](C(=O)N2CCCC2)NC(=O)[C@H](Cc2ccc(O)cc2)NC(=O)[C@H](CC(=O)O)NC(=O)[C@H](Cc2c[nH]c3ccccc23)NC(=O)[C@H](Cc2ccc(O)cc2)NC(=O)[C@H](CC(=O)O)NC(=O)[C@H](Cc2ccccc2)NC(=O)[C@H](Cc2c[nH]c3ccccc23)NC1=O) [PP18] ?
Result: 0.9
